- STUDY_SYSTEM: T1, human DR3 (full length, on cells) (human, UniProt Q93038 25-417)
- T1 sequence: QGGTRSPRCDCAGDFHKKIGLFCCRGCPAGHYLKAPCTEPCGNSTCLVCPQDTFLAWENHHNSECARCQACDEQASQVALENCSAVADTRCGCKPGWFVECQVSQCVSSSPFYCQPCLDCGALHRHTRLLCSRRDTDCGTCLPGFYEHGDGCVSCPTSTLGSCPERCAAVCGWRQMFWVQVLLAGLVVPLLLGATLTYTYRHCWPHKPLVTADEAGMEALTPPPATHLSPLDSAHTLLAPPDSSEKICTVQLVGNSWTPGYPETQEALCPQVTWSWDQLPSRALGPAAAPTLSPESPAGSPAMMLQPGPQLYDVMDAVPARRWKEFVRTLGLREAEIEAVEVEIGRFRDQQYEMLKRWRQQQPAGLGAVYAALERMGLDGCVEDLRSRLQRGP
- PROTOCOL_SUMMARY: cell-based or functional assay
QUANTITY: IFN-γ, TL1A-costimulated lymphocytes, Fab 0.003 µg/mL

Field: example entries. Status: answers known.
| BINDER | READING |
| --- | --- |
| 0118 (chimeric Fab of 27F16, human IgG1 constant domain) (Fab, V domains shown) VH: EVQLVESGGDFVKPGGSLKLSCAASGFTFNNYGMSWVRQTPDKRLEWVAAISSGVTYTYYPDTVKGRFTISRDNAKNTLYLHMSSLKSEDTAMYYCGRHDDYGNHFDYWGQGTTLTVSS VL: DIVMTQSPSSLAMSLGQRVTMNCKSSQSLLNSHNQKNYLAWYQQKPGQSPKLLVYFASSRESGVPDRFIGSGSGTDFTLTISSVQAEDLADYFCQQHYSTPFTFGSGTKLEIKR | 132 ng/mL |
| 0170 (humanized IgG1 Fab of 0072; HC T28A S49A Y91; LC Q3A T5A S60A M4) (Fab, V domains shown) VH: EVQLVESGGGLVQPGGSLRLSCAASGFTFSNYDMSWVRQAAGKGLEWVSAFSSDGYTFYPGAVKGRFTISRENAKNSLYLQMNSLRAGDTAVYYCARHADYANYPVMDYWGQGTLVTVSS VL: DIAMAQSPSSLSASVGDRVTITCRASKSVSTSGYSYMHWYQQKPGKAPKLLIYLASNLEAGVPSRFSGSGSGTDFTLTISSLQPEDFATYYCQHSRELPLTFGGGTKVEIK | 131 ng/mL |
| 0173 (humanized IgG1 Fab of 0072; HC T28A S49A Y91S; LC Q3A T5A S60A M4L) (Fab, V domains shown) VH: EVQLVESGGGLVQPGGSLRLSCAASGFTFSNYDMSWVRQAAGKGLEWVSAFSSDGYTFYPGAVKGRFTISRENAKNSLYLQMNSLRAGDTAVYYCARHADYANSPVMDYWGQGTLVTVSS VL: DIALAQSPSSLSASVGDRVTITCRASKSVSTSGYSYMHWYQQKPGKAPKLLIYLASNLEAGVPSRFSGSGSGTDFTLTISSLQPEDFATYYCQHSRELPLTFGGGTKVEIK | 160 ng/mL |
| 0169 (humanized IgG1 Fab of 0072; HC T28A S49A Y91; LC Q3A T5A S60A M4L) (Fab, V domains shown) VH: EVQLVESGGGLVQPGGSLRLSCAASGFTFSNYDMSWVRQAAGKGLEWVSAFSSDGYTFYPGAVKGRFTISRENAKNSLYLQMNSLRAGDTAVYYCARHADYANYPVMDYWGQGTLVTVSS VL: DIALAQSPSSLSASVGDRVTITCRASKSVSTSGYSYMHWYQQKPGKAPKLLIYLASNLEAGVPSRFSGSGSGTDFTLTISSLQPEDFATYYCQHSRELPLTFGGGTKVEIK | 121 ng/mL |

Switching to the query record.
Consider the binder shown here: 0171 (humanized IgG1 Fab of 0072 without back mutations) (Fab, V domains shown) VH: EVQLVESGGGLVQPGGSLRLSCAASGFTFSNYDMSWVRQATGKGLEWVSAFSSDGYTFYPGSVKGRFTISRENAKNSLYLQMNSLRAGDTAVYYCARHADYANYPVMDYWGQGTLVTVSS VL: DIQMTQSPSSLSASVGDRVTITCRASKSVSTSGYSYMHWYQQKPGKAPKLLIYLASNLESGVPSRFSGSGSGTDFTLTISSLQPEDFATYYCQHSRELPLTFGGGTKVEIK What is its recorded IFN-γ, TL1A-costimulated lymphocytes, Fab 0.003 µg/mL?
140 ng/mL
